Values compiled from ChEMBL document CHEMBL2169861.

System: Rattus norvegicus
Test: Anti-benign prostatic hyperplasia activity in Wistar rat assessed as reduction of dorsal prostate weight gain at 1 mg/kg, po qd for 14 days measured on day 15
Assay type: functional, Prostate gland
Set-up: scale not given: the % may be the effect or the level left
Think of 40% as a floor: if Activity stands on it or above, it is y; beneath it, n.

{"molecule": "CC(C)(C)NC(=O)[C@H]1CC[C@H]2[C@@H]3CC[C@H]4NC(=O)C=C[C@]4(C)[C@H]3CC[C@]12C [FINASTERIDE]", "class": "y"}
{"molecule": "C=CCN1C(=O)CC[C@H]2[C@@H]3CC=C4C=C(C(=O)O)CC[C@]4(C)[C@H]3CC[C@@]21C", "class": "n"}
{"molecule": "C[C@]12CCC(C(=O)O)=CC1=CC[C@@H]1[C@@H]2CC[C@]2(C)NC(=O)CC[C@@H]12", "class": "y"}
{"molecule": "CCOC(=O)CCN1C(=O)CC[C@H]2[C@@H]3CC=C4C=C(C(=O)O)CC[C@]4(C)[C@H]3CC[C@@]21C", "class": "n"}
{"molecule": "C[C@]12CC[C@H]3[C@@H](CC=C4C=C(C(=O)O)CC[C@@H]43)[C@@H]1CCC2=O", "class": "n"}
{"molecule": "CCN1C(=O)CC[C@H]2[C@@H]3CC=C4C=C(C(=O)O)CC[C@]4(C)[C@H]3CC[C@@]21C", "class": "n"}
{"molecule": "CN1C(=O)CC[C@H]2[C@@H]3CC=C4C=C(C#N)CC[C@]4(C)[C@H]3CC[C@@]21C", "class": "n"}

---

Target: 3-oxo-5-alpha-steroid 4-dehydrogenase 2 (Homo sapiens) (UniProt P31213)
Sequence (P31213 whole entry): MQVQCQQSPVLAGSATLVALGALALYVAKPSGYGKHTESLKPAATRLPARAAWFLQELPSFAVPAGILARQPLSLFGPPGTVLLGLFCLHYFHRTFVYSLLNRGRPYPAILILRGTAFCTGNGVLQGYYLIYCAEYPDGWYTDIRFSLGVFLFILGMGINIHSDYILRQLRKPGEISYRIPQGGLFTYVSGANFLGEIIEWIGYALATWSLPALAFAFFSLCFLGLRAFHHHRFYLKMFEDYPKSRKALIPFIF
Test: Inhibition of human type-2 5-alpha reductase expressed in HEK293 cells using [3H]-androstenedione as substrate at 2 uM after 30 mins by HPLC analysis
Type: cell-based
inhibition: recorded values
measuredQuantity: inhibition (%)

{"structure": "CCN1C(=O)CC[C@H]2[C@@H]3CC=C4C=C(C(=O)O)CC[C@]4(C)[C@H]3CC[C@@]21C", "unitsLabel": "%", "reportedResult": 100}
{"structure": "CN1C(=O)CC[C@H]2[C@@H]3CC=C4C=C(C(=O)O)CC[C@]4(C)[C@H]3CC[C@@]21C", "unitsLabel": "%", "reportedResult": 99}
{"structure": "CCOC(=O)CCN1C(=O)CC[C@H]2[C@@H]3CC=C4C=C(C(=O)O)CC[C@]4(C)[C@H]3CC[C@@]21C", "unitsLabel": "%", "reportedResult": 100}
{"structure": "C=CCN1C(=O)CC[C@H]2[C@@H]3CC=C4C=C(C(=O)O)CC[C@]4(C)[C@H]3CC[C@@]21C", "unitsLabel": "%", "reportedResult": 99.7}
{"structure": "C[C@]12CC[C@H]3[C@@H](CC=C4C=C(C(=O)O)CC[C@@H]43)[C@@H]1CCC2=O", "unitsLabel": "%", "reportedResult": 89.5}

---

Target: UniProtKB P31213
Assay: Inhibition of human type-2 5-alpha reductase expressed in HEK293 cells using [3H]-androstenedione as substrate after 30 mins by HPLC analysis
pIC50: −log10 of the molar value.

{"molecule": "CN1C(=O)CC[C@H]2[C@@H]3CC=C4C=C(C(=O)O)CC[C@]4(C)[C@H]3CC[C@@]21C", "pIC50": 7.27}
{"molecule": "CCN1C(=O)CC[C@H]2[C@@H]3CC=C4C=C(C(=O)O)CC[C@]4(C)[C@H]3CC[C@@]21C", "pIC50": 7.66}
{"molecule": "C=CCN1C(=O)CC[C@H]2[C@@H]3CC=C4C=C(C(=O)O)CC[C@]4(C)[C@H]3CC[C@@]21C", "pIC50": 7.14}
{"molecule": "CCOC(=O)CCN1C(=O)CC[C@H]2[C@@H]3CC=C4C=C(C(=O)O)CC[C@]4(C)[C@H]3CC[C@@]21C", "pIC50": 7.58}
{"molecule": "CC(C)(C)NC(=O)[C@H]1CC[C@H]2[C@@H]3CC[C@H]4NC(=O)C=C[C@]4(C)[C@H]3CC[C@]12C [FINASTERIDE]", "pIC50": 7.52}
{"molecule": "C[C@]12CC[C@H]3[C@@H](CC=C4C=C(C(=O)O)CC[C@@H]43)[C@@H]1CCC2=O", "pIC50": 6.67}
